Source: the OligoGym collection

biological target: CRYGS; assay: pooled miR-30 sensor sort-seq; sequence = guide strand; conditions: shRNA; also: reference of the scale not given here
Label scheme for sensor-assay potency score (higher = more potent): lower than -1 is no (0), -1 and above is yes (1).

{"SEQUENCE": "TCGCAATCACAGTCATAGCGAC", "CLASS ASSIGNMENT": "no (0)"}
{"SEQUENCE": "TTTTTGTCTTCATAGAAAGTAA", "CLASS ASSIGNMENT": "yes (1)"}
{"SEQUENCE": "TCCACTTTAATGGAGTTGCAGC", "CLASS ASSIGNMENT": "no (0)"}
{"SEQUENCE": "TTTCTCAAAGATCTGAATCTTA", "CLASS ASSIGNMENT": "yes (1)"}
{"SEQUENCE": "TTGAAAATTTTTGTCTTCATAG", "CLASS ASSIGNMENT": "no (0)"}
{"SEQUENCE": "TCGCATGTGAAATTGCTCCATG", "CLASS ASSIGNMENT": "yes (1)"}
{"SEQUENCE": "TTTCATACATCTGACCACTAAA", "CLASS ASSIGNMENT": "no (0)"}
{"SEQUENCE": "TTACAGGAGTGGATCTCTCGCA", "CLASS ASSIGNMENT": "yes (1)"}
{"SEQUENCE": "TCGGTGGTTTCATACATCTGAC", "CLASS ASSIGNMENT": "no (0)"}
{"SEQUENCE": "TGGAGTTGCAGCGACTTAGGTA", "CLASS ASSIGNMENT": "yes (1)"}
{"SEQUENCE": "TGATGGAAGGGCAATCTTCGGT", "CLASS ASSIGNMENT": "no (0)"}
{"SEQUENCE": "AAGATCTGAATCTTATACTGGC", "CLASS ASSIGNMENT": "yes (1)"}
{"SEQUENCE": "TTCGGTGGTTTCATACATCTGA", "CLASS ASSIGNMENT": "yes (1)"}
{"SEQUENCE": "TGAAATTGCTCCATGATGGAAG", "CLASS ASSIGNMENT": "yes (1)"}

---

biological target: MAPK4; assay: pooled miR-30 sensor sort-seq; sequence = guide strand; conditions: shRNA
Listing of recorded sensor-assay potency score (higher = more potent) by entry.
ENDPOINT LABEL: sensor-assay potency score (higher = more potent)

{"SEQUENCE": "TTGTAGTCGCAGGAGCGCCCGT", "OBSERVED RESULT": -1.23}
{"SEQUENCE": "TTAGTAGTTATAACAATTCCTC", "OBSERVED RESULT": -0.514}
{"SEQUENCE": "TAAGTTTCTAATGTGTTGCAGG", "OBSERVED RESULT": -0.429}
{"SEQUENCE": "TTAAAGAAAAAACAAAACCCAA", "OBSERVED RESULT": -1.11}

---

Here, each record is paired with measured sensor-assay potency score (higher = more potent) data.
biological target: WDR59; experiment: pooled miR-30 sensor sort-seq; sequence = guide strand; conditions: shRNA
ENDPOINT LABEL: sensor-assay potency score (higher = more potent)

{"SEQUENCE": "TAAAGCTAGGATATCGACTATG", "OBSERVED RESULT": -0.97}
{"SEQUENCE": "TAACCTGCTCCGCAGAACCTGG", "OBSERVED RESULT": -1.45}
{"SEQUENCE": "TACTAGAATTTTATTAGCCAAG", "OBSERVED RESULT": -1.53}
{"SEQUENCE": "TTACTTTTCCATCGTCTTGATT", "OBSERVED RESULT": -0.978}
